- measurement_description: drug combination growth inhibition, ovarian cancer – cell-based, oncology-focused library, rucaparib conditional, profiling panel (AID 1508598)
- applied_conditions: patient-derived ovarian cancer cells, CellTiter-Glo viability, 144 h; at 0.0781 µM; OCI-P5x cells; without rucaparib
The source made the active and inactive calls.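 Rule for the calls: active = normalized viability below 100% at a tested concentration; inactive = the rest.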
Possible outcomes: y = active, n = inactive

                               given_smiles  assigned_category
0  CCOC(=O)c1cnc2ccc(-c3cncc(NS(=O)(=O)c4ccccc4)c3)cn12                  y
1  C[C@]12C=CC(=O)C=C1CC[C@@H]1[C@H]2C(=O)C[C@@]2(C)[C@H]1CC[C@@]2(O)C(=O)CO                  y
2  CCc1c2c(nc3ccc(OC(=O)N4CCC(N5CCCCC5)CC4)cc13)-c1cc3c(c(=O)n1C2)COC(=O)[C@@]3(O)CC                  n
3  CCOc1ccc(Cc2cc([C@@H]3O[C@H](CO)[C@@H](O)[C@H](O)[C@@H]3O)ccc2Cl)cc1                  n

====

- measurement_description: MELAS cybrid and Rieske KO viability enhancers – cell-based, MELAS cybrids, Rieske KO mouse fibroblasts, CellTiter-Glo, primary screen (AID 1508586);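 note: z relative to plate mean and SD of compound and empty wells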
- applied_conditions: MELAS cybrid survival, low glucose, CellTiter-Glo 48 h
The source made the active and inactive calls.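 How the source made its calls: active means mean z-score across replicates of 1.96 or higher in either the MELAS or the Rieske mutant cell line; inactive means the rest.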
Outcomes: True = active, False = inactive

>>> df
                                   compound  assigned_category
0  CN1[C@@H](C[C@H](O)c2ccccc2)CCC[C@H]1CC(=O)c1ccccc1              False
1  Cc1c(Cc2ccc3ccccc3n2)c2cc(F)ccc2n1CC(=O)O              False
2  CN1CCCc2cc(C(=O)N3CC(=O)N(Cc4ccccc4)CC(OCc4ccccn4)C3)ccc21 (stereo not given)              False
3  CCCC(Nc1nc(-c2ccc(NC(=O)NCC)c(OC)c2)ncc1C)c1cccnc1 (stereo not given)               True
4  COC(=O)C1=COC(OC2OC(CO)C(O)C(O)C2O)[C@H]2C(CO)=CC[C@H]12 (stereo not given in full)              False
5  CCN1C(=O)N(C)C(=O)C12CCN(Cc1cc3oc(C)c(-c4ccccc4)c3cc1OC)CC2              False
6          O=C1CN(c2ncnc3sccc23)CCN1C1CCCC1              False
7  C=CCn1nc(C(=O)N2CCSCC2)c2c1CCC(NCCCSC)C2 (stereo not given)              False
8   Cc1ccc(NC(=O)NCCSCc2ccc(CN(C)C)o2)cc1Cl              False
9              Cc1c(Cl)cccc1Nc1ncccc1C(=O)O              False

====

- measurement_description: viability loss with induced miR-34 in A549 – imaging, A549 dox-inducible miR-34, nuclei and caspase counts, primary screen (AID 1347080)
- applied_conditions: A549 miR-34 inducible, Hoechst nuclei count, 48 h; measured here: total cells with miR-34 induction; stronger effect = lower value
We label by threshold. Values of cell count strictly beneath 6000 are Condition met. Values of 6000 and up are Condition not met.

>>> print(df.to_string())
                                   molecule  assigned_category
0              N=C(N)SCCc1cccc(CCSC(=N)N)c1  Condition not met
1  COC1=C2CC(C)CC(OC)C(O)C(C)C=C(C)C(OC(N)=O)C(OC)C=CC=C(C)C(=O)NC(=CC1=O)C2=O (stereo not given)      Condition met
2  COc1cc(C(O)C(=O)O)ccc1O (stereo not given)  Condition not met
3  CC1C[C@@H]2[C@@H](C(O)C[C@@]3(C)[C@H]2CC[C@@]3(O)C(=O)CO)[C@@]2(C)C=CC(=O)C=C12 (stereo not given in full)      Condition met
4  Oc1ccc(C2CNCc3sccc32)cc1O (stereo not given)  Condition not met
5  CCN(CC)C(=O)c1c(NC(=O)c2cccs2)sc2c1CCCC2      Condition met
6           Cc1cc(-c2cccc(OC(C)C)c2)nc(N)n1  Condition not met
7  CN1[C@@H]2CC[C@@H]1CC(OC(=O)C(O)c1ccccc1)C2 (stereo not given in full)  Condition not met

====

- measurement_description: viability loss with induced miR-34 in A549 – imaging, A549 dox-inducible miR-34, nuclei and caspase counts, primary screen (AID 1347080)
- applied_conditions: A549 miR-34 inducible, Hoechst nuclei count, 48 h; measured here: total cells without miR-34 induction
# cell count per entry
value_type: cell count

compound	assay_result
Fc1ccc2[nH]c(CN3CCN(c4ccccn4)CC3)cc2c1	8930
CC[C@]1(O)C[C@@H]2CN(CCc3c([nH]c4ccccc34)[C@@](C(=O)OC)(c3cc4c(cc3OC)N(C=O)[C@@H]3[C@@]45CCN4CC=C[C@@](CC)(C(OC(C)=O)[C@]3(O)C(=O)OC)[C@H]45)C2)C1 (some centres not stated)	1100
CCCCCCCCCCCCCCCC(=O)O[C@@H]1[C@@H](O)[C@@H](O)[C@@H](C(NC(=O)[C@@H]2C[C@@H](CCC)CN2C)C(C)Cl)O[C@@H]1SC (some centres not stated)	10800
CCNc1ncc(-c2cc(C(=O)N(C)CCN(C)C)c3cc(F)ccc3n2)cn1	9610
c1ccc2c(c1)CC(N1CCN(c3cccc4c3OCCO4)CC1)C2	7890
CCOC(=O)C(N)Cc1ccc(-c2cc(OC(c3ccc(Cl)cc3-n3ccc(C)n3)C(F)(F)F)nc(N)n2)cc1 (configuration not stated)	8260
CC[N+]1(C)[C@@H]2CC[C@H]1CC(OC(=O)[C@H]1CCC(C(=O)OC3C[C@H]4CC[C@@H](C3)[N+]4(C)CC)(c3ccccc3)c3ccccc31)C2 (some centres not stated)	10100

====

- measurement_description: drug combination growth inhibition, ovarian cancer – cell-based, oncology-focused library, rucaparib conditional, profiling panel (AID 1508598)
- applied_conditions: patient-derived ovarian cancer cells, CellTiter-Glo viability, 144 h; at 0.0195 µM; OCI-C5x cells; without rucaparib; stronger effect = lower value
*1 amine or outer side, *2 acyl side, *3 side chain or, on linkers, in order; H or OH if unused. Where a SMILES comes first, the peptide text is derived from it. Bridges are numbered along the chain shown (N, C = ends). Roman numbers before positions name the chains, in order. [ ]: non-standard residue; d: D form. Hexamethylenediamine = C(CCCN[*:2])CCN[*:1]; Dip = N[C@H](C(=O)O)C(c1ccccc1)c1ccccc1; Chg = N[C@H](C(=O)O)C1CCCCC1; NMeA = CN[C@@H](C)C(=O)O

compound	viability (%)
COc1cc([C@H]2c3cc4c(cc3[C@@H](O[C@@H]3O[C@@H]5CO[C@@H](C)O[C@H]5[C@H](O)[C@@H]3O)[C@H]3COC(=O)[C@H]23)OCO4)cc(OC)c1O	103
CN[C@@H](C)C(=O)N[C@H](C(=O)N1CCC[C@H]1C(=O)N[C@H](C(=O)NCCCCCCNC(=O)[C@@H](NC(=O)[C@@H]1CCCN1C(=O)[C@@H](NC(=O)[C@H](C)NC)C1CCCCC1)C(c1ccccc1)c1ccccc1)C(c1ccccc1)c1ccccc1)C1CCCCC1 (I: H-[NMeA][Chg]P[Dip] / II: H-[NMeA][Chg]P[Dip]; linker I:C-II:C via Hexamethylenediamine)	108
COC1=C2C[C@H](C)C[C@@H](OC)[C@H](O)[C@H](C)/C=C(\C)[C@H](OC(N)=O)[C@@H](OC)/C=C/C=C(\C)C(=O)NC(=CC1=O)C2=O	12.1
COc1ccccc1-c1cc(Nc2cccc(CS(N)(=O)=O)c2)ncn1	117

====

Reported inhibition values for the following compounds.
- measurement_description: growth inhibition, single agents and combos, ICB984, cell-based, cisplatin or BGB combos, synergistic combos for chromothripsis tumors (AID 1671451);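 note: cells exposed for 96 hours before readout; 0% = vehicle DMSO and 100% = killing by high DMSO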
- applied_conditions: ICB984 medulloblastoma cells, drug combinations, at 0.5 µM, stronger effect = higher value
Active and inactive are the calls of the source. The rule behind the calls is not given here.
value_type: inhibition

>>> print(df.to_string())
                                    compound       assay_result
 0  Nc1ccn(C2CCC(CO)O2)c(=O)n1 (stereo unspecified)  -11.4% (inactive)
 1        CC(C)c1ccc(-c2cc(=O)c3ccccc3o2)cc1  -18.8% (inactive)
 2  COc1ccccc1S(=O)(=O)Nc1ccc2c(c1)CN(C)C(=O)N2  -27.9% (inactive)
 3           O=C1C(=Cc2cccnc2)C(=O)c2ccccc21  -25.7% (inactive)
 4  C=C1C(=O)O[C@@H]2C=C(C)CCC=C(C)CC[C@@H]12  -17.1% (inactive)
 5  C[C@@H]1COCCN1c1cc(C2(S(C)(=O)=O)CC2)nc(-c2cccc3[nH]ccc23)n1  -13.7% (inactive)
 6  CC(Oc1cc(-c2cnn(C3CCNCC3)c2)cnc1N)c1c(Cl)ccc(F)c1Cl (stereo unspecified)  -13.1% (inactive)
 7  CC(C)OC(=O)[C@H](C)NP(=O)(OC[C@H]1O[C@@H](n2ccc(=O)[nH]c2=O)C(C)(F)[C@@H]1O)Oc1ccccc1 (stereo partly specified)  -42.2% (inactive)
 8                      O=C(CCCCCCC(=O)NO)NO    -27% (inactive)
 9  Cc1cc(C#N)cc(C)c1Oc1nc(Nc2ccc(C#N)cc2)nc(N)c1Br  -33.3% (inactive)
10     Cc1ccc(NC(=O)CCCCCC(=O)Nc2ccccc2N)cc1  -27.2% (inactive)

This collection of values is drawn from PubChem BioAssay.
